Sourced from patent US4056625A

# maps each entry to its LC50
System: adult red spider mites (Tetranychus telarius)
Assay: LC50 against adult red spider mites on sprayed French beans (Example 73)
Assay type: in vivo
Details: 48 h, read-out: LC50 value

[
  {
    "COMPOUND": "CC(=O)N(C)C(=O)Oc1cccc2c1OCO2 [Compound 1]",
    "LC50": "100 to 299 µg/mL"
  },
  {
    "COMPOUND": "CC(=O)N(C)C(=O)Oc1cccc2c1OC(C)(C)O2 [Compound 6]",
    "LC50": "100 to 299 µg/mL"
  },
  {
    "COMPOUND": "CCCCC(=O)N(C)C(=O)Oc1cccc2c1OC(C)(C)O2 [Compound 4]",
    "LC50": "300 to 1000 µg/mL"
  },
  {
    "COMPOUND": "CCC(=O)N(C)C(=O)Oc1cccc2c1OC(C)(C)O2 [Compound 2]",
    "LC50": "300 to 1000 µg/mL"
  }
]

====

Listed below: LD50 at 120 h values for each entry.
Assay: Acute oral LD50 to mice (Example 76)
Design: species or system mouse (Carshalton CFW strain)
Settings: in vivo, mouse, by stomach tube in 0.4% tragacanth, up to 5 days
Protocol: Mammalian toxicity was assessed by measuring the acute oral LD50 to rats and mice. Componds were dissolved or suspended in a 0.4% tragacanth solution and administered by stomach tube to the test animal. […] Three replicates per dosage rate were employed and the mortality was recorded daily for up to 5 days. The LD50 values were calculated as for those for insecticidal and acaricidal activity above.

[
  {
    "SMILES": "CCCCC(=O)N(C)C(=O)Oc1cccc2c1OC(C)(C)O2",
    "INEQUALITY SIGN": "=",
    "LD50 at 120 h / mg/kg": 170
  },
  {
    "SMILES": "CNC(=O)Oc1cccc2c1OC(C)(C)O2",
    "INEQUALITY SIGN": "=",
    "LD50 at 120 h / mg/kg": 45
  },
  {
    "SMILES": "CC(=O)N(C)C(=O)Oc1cccc2c1OCO2",
    "INEQUALITY SIGN": ">",
    "LD50 at 120 h / mg/kg": 4000
  },
  {
    "SMILES": "CCCC(=O)N(C)C(=O)Oc1cccc2c1OC(C)(C)O2",
    "INEQUALITY SIGN": "=",
    "LD50 at 120 h / mg/kg": 2000
  },
  {
    "SMILES": "CCC(=O)N(C)C(=O)Oc1cccc2c1OC(C)(C)O2",
    "INEQUALITY SIGN": "=",
    "LD50 at 120 h / mg/kg": 280
  }
]

====

Test: Acute oral LD50 to rats (Example 76)
Type: in vivo, rat (Wystar strain)
Conditions: in vivo, po; rat male, by stomach tube in 0.4% tragacanth, up to 5 days

[
  {
    "SMILES": "CCCC(=O)N(C)C(=O)Oc1cccc2c1OC(C)(C)O2",
    "LD50 at 120 h": "> 1000 mg/kg"
  },
  {
    "SMILES": "CC(=O)N(C)C(=O)Oc1cccc2c1OCO2",
    "LD50 at 120 h": "> 1000 mg/kg"
  },
  {
    "SMILES": "CNC(=O)Oc1cccc2c1OC(C)(C)O2",
    "LD50 at 120 h": "45 mg/kg"
  }
]
